value_type: melting point

// solved cases for melting point follow
1) Nc1cc(Cl)c2nc(C(F)F)n(-c3nc(N4CCOCC4)nc(N4CCCC4CO)n3)c2c1 (centres unmarked) [compound 3] : 256 °C (dec.)
2) Oc1ccc2c(nc(C(F)F)n2-c2nc(N3CCOCC3)nc(N3CCOCC3)n2)c1Cl [compound 6] : > 250 °C
3) CC1(C)CN(c2nc(N3CCOCC3)nc(-n3c(C(F)F)nc4c(Cl)cc(N)cc43)n2)CCO1 [compound 2] : 238 °C (dec.)
4) OCC1CCCN1c1cc(N2CCOCC2)nc(-n2c(C(F)F)nc3c(O)cccc32)n1 (centres unmarked) [compound 1] : 195 to 198 °C

Then there is this compound:
The compound listed as CN1CCC(N(C)c2nc(N3CCOCC3)nc(-n3c(C(F)F)nc4c(Cl)cc(N)cc43)n2)CC1 has a reported melting point of 194 °C (dec.)

Hey, just so you know, these numbers are from patent US7153853B2.
